Species: Rattus norvegicus
PROCEDURE_DETAILS: Vasorelaxant potency by relaxation of the methoxamine contracted rat aorta
Format: functional
ENDPOINT_LABEL: IC50 (nM)
Answers are plain numbers, in nM.

# example entries with known answers
COc1ccc([C@@H]2Sc3ccccc3N(CCN(C)C)C(=O)[C@@H]2OC(C)=O)cc1 [DILTIAZEM]: 2380
CC1(C)Oc2c(c(=O)n(Cc3ccccc3)c3ccccc23)[C@@H](N2CCCC2=O)[C@@H]1O: 440

Can you look up the measured IC50 of COC(=O)C1=C(C)NC(C)=C(C(=O)OC)C1c1ccccc1[N+](=O)[O-] [NIFEDIPINE] for me?
4
